Hey, just so you know, these numbers are from patent US9676771B2.

# System: HIV-1 constructs containing mutant IN R263K
# Method notes: Single-round HIV-1 infectivity assay, IN mutant R263K
# Format: cell-based
# Assay context: Human immunodeficiency virus 1; Table 8; read-out: EC50 (nM, IN mutants) R263K
# key: entry, value: EC50

Molecule | Unit info | EC50
Nc1c(C(=O)NCc2ccc(F)cc2F)c(=O)n(O)c2ncc(CCCCCO)cc12 [XZ419] | nM | 2.6
O=C(NCc1ccc(F)cc1F)c1c(NCCO)c2cc(CCCCCO)cnc2n(O)c1=O [XZ437] | nM | 18.1
O=C(NCc1ccc(F)cc1F)c1c(O)c2c(CO)ccnc2n(O)c1=O [XZ440] | nM | 4
C[C@@H]1CCO[C@H]2Cn3cc(C(=O)NCc4ccc(F)cc4F)c(=O)c(O)c3C(=O)N12 [DTG, dolutegravir, reference compound] | nM | 11.3
COc1cc2c(cc1Cc1cccc(Cl)c1F)c(=O)c(C(=O)O)cn2[C@H](CO)C(C)C [EVG, elvitegravir, reference compound] | nM | 10
Nc1c(C(=O)NCc2ccc(F)cc2F)c(=O)n(O)c2ncc(CCCCCCCCO)cc12 [XZ433] | nM | 3.8
Cc1nnc(C(=O)NC(C)(C)c2nc(C(=O)NCc3ccc(F)cc3)c(O)c(=O)n2C)o1 [RAL, raltegravir, reference compound] | nM | 5.7
COC(=O)CCc1cnc2c(c1)c(N)c(C(=O)NCc1ccc(F)cc1F)c(=O)n2O [XZ434] | nM | 0.5
Nc1c(C(=O)NCc2ccc(F)cc2F)c(=O)n(O)c2ncccc12 [XZ384] | nM | 6.4
COC(=O)CCc1cnc2c(c1)c(NCCO)c(C(=O)NCc1ccc(F)cc1F)c(=O)n2O [XZ438] | nM | 6.5
Nc1c(C(=O)NCc2ccc(F)cc2F)c(=O)n(O)c2ncc(CCCCCCO)cc12 [XZ426] | nM | 8.4
Nc1c(C(=O)NCc2ccc(F)cc2F)c(=O)n(O)c2ncc(CCCO)cc12 [XZ423] | nM | 2.5
Nc1c(C(=O)NCc2ccc(F)cc2F)c(=O)n(O)c2ncc(CCS(=O)(=O)c3ccccc3)cc12 [XZ446] | nM | 5.3

----------
Listed below: EC50 values for each entry.
# System: HIV-1 constructs containing mutant IN N155H
# Method notes: microbe, parasite or virus in culture
# Format: cell-based
# Assay context: Human immunodeficiency virus 1; Table 3; read-out: EC50 (nM, IN Mutants) N155H
Readout kind: EC50 (nM)

Smiles | Unit info | Assay value
O=C(NCc1ccc(F)c(F)c1)c1cc2cccnc2n(O)c1=O | nM | 2200
O=C(NCc1ccc(F)c(Cl)c1)c1cc2cccnc2n(O)c1=O | nM | 90.3
O=C(NCc1ccc(F)c(F)c1)c1c(O)c2cccnc2n(O)c1=O | nM | 189
O=C(NCc1ccc(F)cc1)c1cc2cccnc2n(O)c1=O | nM | 268
O=C(NCc1ccc(F)cc1F)c1c(NCCO)c2cccnc2n(O)c1=O | nM | 24.6
COC(=O)CNc1c(C(=O)NCc2ccc(F)cc2F)c(=O)n(O)c2ncccc12 | nM | 19
O=C(NCc1ccc(F)cc1F)c1c(NCCCCc2ccccc2)c2cccnc2n(O)c1=O | nM | 116
O=C(NCc1ccc(F)cc1F)c1c(Nc2ccccc2)c2cccnc2n(O)c1=O | nM | 110

----------
# Method notes: in vitro
# Type: cell-based, human
# Assay context: human, Table 8; 50% reduction in the level of ATP in HOS cells
# CC50 values compiled below
Readout kind: CC50

Compound | Assay value
Nc1c(C(=O)NCc2ccc(F)cc2F)c(=O)n(O)c2ncc(CCCCCCO)cc12 | > 250 µM
Cc1nnc(C(=O)NC(C)(C)c2nc(C(=O)NCc3ccc(F)cc3)c(O)c(=O)n2C)o1 [RAL, raltegravir, reference compound] | > 250 µM
Nc1c(C(=O)NCc2ccc(F)cc2F)c(=O)n(O)c2ncc(CCCCCCOC(=O)c3ccccc3)cc12 | 14.4 µM
O=C(NCc1ccc(F)cc1F)c1c(O)c2cc(CCCCCO)cnc2n(O)c1=O | > 250 µM
Nc1c(C(=O)NCc2ccc(F)cc2F)c(=O)n(O)c2ncc(Br)cc12 | > 250 µM
COc1cc2c(cc1Cc1cccc(Cl)c1F)c(=O)c(C(=O)O)cn2[C@H](CO)C(C)C [EVG, elvitegravir, reference compound] | > 250 µM
Nc1c(C(=O)NCc2ccc(F)cc2F)c(=O)n(O)c2ncc(CCc3ccccc3)cc12 | 17.6 µM
Nc1c(C(=O)NCc2ccc(F)cc2F)c(=O)n(O)c2ncc(CCC(=O)O)cc12 | > 250 µM
Nc1c(C(=O)NCc2ccc(F)cc2F)c(=O)n(O)c2ncccc12 | > 250 µM
CC(=O)OCCCCCc1cnc2c(c1)c(NCCO)c(C(=O)NCc1ccc(F)cc1F)c(=O)n2O | > 250 µM
COC(=O)CNc1c(C(=O)NCc2ccc(F)cc2F)c(=O)n(O)c2ncc(CCCCCO)cc12 | > 250 µM

----------
Recorded pIC50 for the following compounds
# Assayed target: HIV-1 integrase (Human immunodeficiency virus type 1 group M subtype B, UniProt P12497)
# Method notes: biochemical
# Assay type: biochemical
# Assay context: Table 4; 3′-processing; read-out: IC50 (3^+-Processing)
# Method: In Vitro Integrase Assay. Integrase reactions were carried out by adding drugs or an equivalent volume of 100% dimethyl sulfoxide (DMSO; used as the drug solvent) to a mixture of 20 nM DNA and 400 nM integrase in 50 mM morpholinepropanesulfonic acid (pH 7.2), 7.5 mM MgCl2, and 14 mM 2-mercaptoethanol. […]
pIC50: −log10 of the molar value.

Compound | Operator symbol | pIC50
COC(=O)CNc1c(C(=O)NCc2ccc(F)cc2F)c(=O)n(O)c2nc(OC)ccc12 [XZ407] | = | 4.70
O=C(NCc1ccc(F)cc1F)c1c(O)c2ccc(N3CCOCC3)nc2n(O)c1=O [XZ412] | < | 3.48
O=C(NCc1ccc(F)cc1F)c1c(N2CCOCC2)c2cccnc2n(O)c1=O [XZ373] | = | 4.11
COc1ccc2c(N)c(C(=O)NCc3ccc(F)cc3F)c(=O)n(O)c2n1 [XZ406] | = | 4.74
O=C(NCc1ccc(F)cc1F)c1c(NCCO)c2cccnc2n(O)c1=O [XZ378] | = | 6.26
CCOC(=O)[C@@H]1CCCN1c1c(C(=O)NCc2ccc(F)cc2F)c(=O)n(O)c2ncccc12 [XZ404] | = | 4.07
NCc1ccc(-c2ccc(Nc3c(C(=O)NCc4ccc(F)cc4F)c(=O)n(O)c4ncccc34)cc2)cc1 [XZ389] | < | 3.48
CC(=O)OCCNc1c(C(=O)NCc2ccc(F)cc2F)c(=O)n(O)c2ncccc12 [XZ402] | = | 5.28

----------
# Method notes: in vitro
# Type: cell-based, human
# Assay context: human, Table 3; 50% reduction in the level of ATP in HOS cells
Readings of CC50 for the listed molecules
Readout kind: CC50

Smiles | Assay value
O=C(NCc1ccc(F)c(Cl)c1)c1c(O)c2cccnc2n(O)c1=O | 102 µM
COC(=O)[C@@H](Nc1c(C(=O)NCc2ccc(F)cc2F)c(=O)n(O)c2ncccc12)c1ccccc1 | > 250 µM
O=C(NCc1ccc(F)cc1)c1cc2cccnc2n(O)c1=O | > 250 µM
COC(=O)CNc1c(C(=O)NCc2ccc(F)cc2F)c(=O)n(O)c2ncccc12 | > 250 µM
O=C(NCc1ccc(F)c(Cl)c1)c1cc2cccnc2n(O)c1=O | > 250 µM
CNc1c(C(=O)NCc2ccc(F)cc2F)c(=O)n(O)c2ncccc12 | > 250 µM
COC(=O)[C@H](C)Nc1c(C(=O)NCc2ccc(F)cc2F)c(=O)n(O)c2ncccc12 | > 250 µM
O=C(NCc1ccc(F)cc1F)c1c(NCCO)c2cccnc2n(O)c1=O | 23.5 µM
O=C(NCc1ccc(F)cc1F)c1c(N2CCOCC2)c2cccnc2n(O)c1=O | 8.4 µM
CC(C)Nc1c(C(=O)NCc2ccc(F)cc2F)c(=O)n(O)c2ncccc12 | > 250 µM
CC(=O)OCCNc1c(C(=O)NCc2ccc(F)cc2F)c(=O)n(O)c2ncccc12 | > 250 µM
COC(=O)[C@@H](CO)Nc1c(C(=O)NCc2ccc(F)cc2F)c(=O)n(O)c2ncccc12 | > 250 µM
